Sourced from patent US8629143B2

Listing of entries alongside the reported EC50.
# target-or-test-system: KCNQ 2/3 channels (HEK293 cells stably expressing human KCNQ2 and KCNQ3 subunits) (Homo sapiens, UniProt O43525+O43526)
# test-method-notes: KCNQ2/3 channel activation, thallium flux FLIPR assay with BTC-AM dye
# settings: HEK293 cells expressing human KCNQ2 and KCNQ3; thallium flux, FLIPR
endpoint-label: EC50

# molecule, endpoint-result
records = [
    ("O=C(Cc1ccc(Cl)cc1)Nn1nc(C2CC2)c2ccccc2c1=O", "1000 to 10000 nM"),
    ("O=C(CC12CC3CC(CC(C3)C1)C2)Nn1nc(-c2ccccc2)c2c(c1=O)CCC2", "100 to 500 nM"),
    ("CC(C)c1ccc(-c2nn(NC(=O)CC34CC5CC(CC(C5)C3)C4)c(=O)c3ccccc23)cc1", "100 to 500 nM"),
    ("CN(C)c1ccc(CC(=O)Nn2nc(-c3ccc(Cl)cc3)c3ccccc3c2=O)cc1", "1000 to 10000 nM"),
    ("O=C(CC1CC2CCC1C2)Nn1nc(-c2ccc(F)cc2)c2ccccc2c1=O (racemic)", "< 100 nM"),
    ("CC(C)c1ccc(-c2nn(NC(=O)C[C@H]3C[C@@H]4CC[C@H]3C4)c(=O)c3ccccc23)cc1 (racemic)", "100 to 500 nM"),
    ("CC(C)c1nn(NC(=O)CC23CC4CC(CC(C4)C2)C3)c(=O)c2cc(C(F)(F)F)ccc12", "> 10000 nM"),
    ("O=C(Cc1ccccc1)Nn1nc(-c2ccc(Cl)cc2)c2ccccc2c1=O", "100 to 500 nM"),
    ("O=C(Cc1ccc(Cl)c(F)c1)Nn1nc(-c2ccc(Cl)cc2)c2ccccc2c1=O", "500 to 1000 nM"),
]
